Data credit: ChEMBL document CHEMBL3120075

- measurementNotes: Metabolic stability in beagle dog liver microsomes assessed as hepatic extraction at 3 uM after 60 mins by LC/MS/MS analysis
- Format: ADME, Canis lupus familiaris
- reportedConditions: read-out: ERH

structureSmiles | hepatic extraction ratio at 1 h, 3 µM
COC(=O)N[C@H](C(=O)N1CC2(CC2)C[C@H]1c1nc(-c2ccc3c(c2)C(F)(F)c2cc(-c4ccc5[nH]c([C@@H]6[C@H]7CC[C@H](C7)N6C(=O)[C@@H](NC(=O)OC)C(C)C)nc5c4)ccc2-3)c[nH]1)C(C)C | < 0.095

----------
- measurementNotes: Oral bioavailability in cynomolgus monkey at 1 mg/kg
- Type: ADME, organism-based, Macaca fascicularis
- reportedConditions: in vivo
measuredProperty: bioavailability (%)

structureSmiles | measuredResult
COC(=O)N[C@H](C(=O)N1CC2(CC2)C[C@H]1c1nc(-c2ccc3c(c2)C(F)(F)c2cc(-c4ccc5[nH]c([C@@H]6[C@H]7CC[C@H](C7)N6C(=O)[C@@H](NC(=O)OC)C(C)C)nc5c4)ccc2-3)c[nH]1)C(C)C | 41.1

----------
- measurementNotes: Plasma concentration in fasted healthy human at 3 mg/kg, po at 24 hrs
- Assay type: ADME, organism-based
- Design: dose 3 mg/kg, route oral
measuredProperty: concentration at 24 h (nM)

structureSmiles | measuredProperty | outputUnit | measuredResult
COC(=O)N[C@H](C(=O)N1CC2(CC2)C[C@H]1c1nc(-c2ccc3c(c2)C(F)(F)c2cc(-c4ccc5[nH]c([C@@H]6[C@H]7CC[C@H](C7)N6C(=O)[C@@H](NC(=O)OC)C(C)C)nc5c4)ccc2-3)c[nH]1)C(C)C | concentration at 24 h | nM | 2.45

----------
- measurementNotes: AUClast in fasted healthy human at 60 mg/kg, po
- Format: ADME, organism-based
- Set-up: dose 60 mg/kg, route oral, time 0 - last
- reportedConditions: plasma

structureSmiles | AUC(0-t) / µM·h
COC(=O)N[C@H](C(=O)N1CC2(CC2)C[C@H]1c1nc(-c2ccc3c(c2)C(F)(F)c2cc(-c4ccc5[nH]c([C@@H]6[C@H]7CC[C@H](C7)N6C(=O)[C@@H](NC(=O)OC)C(C)C)nc5c4)ccc2-3)c[nH]1)C(C)C | 4.01

----------
- measurementNotes: AUC (infinity) in fasted healthy human at 60 mg/kg, po
- Type: ADME, organism-based
- Design: time infinity, dose 60 mg/kg, route oral
- reportedConditions: plasma

structureSmiles | AUC(0-inf)
COC(=O)N[C@H](C(=O)N1CC2(CC2)C[C@H]1c1nc(-c2ccc3c(c2)C(F)(F)c2cc(-c4ccc5[nH]c([C@@H]6[C@H]7CC[C@H](C7)N6C(=O)[C@@H](NC(=O)OC)C(C)C)nc5c4)ccc2-3)c[nH]1)C(C)C | 5.3 µM·h

----------
- measurementNotes: Tmax in fasted healthy human at 3 mg/kg, po
- Type: ADME, organism-based
- Design: dose 3 mg/kg, route oral
- reportedConditions: in vivo

structureSmiles | Tmax, h
COC(=O)N[C@H](C(=O)N1CC2(CC2)C[C@H]1c1nc(-c2ccc3c(c2)C(F)(F)c2cc(-c4ccc5[nH]c([C@@H]6[C@H]7CC[C@H](C7)N6C(=O)[C@@H](NC(=O)OC)C(C)C)nc5c4)ccc2-3)c[nH]1)C(C)C | 5.25
